organism: Rattus norvegicus; assay: Open TG-GATES - Regimen: Daily Repeat; format: toxicity, organism-based, Sprague-Dawley; parameters: regimen Daily Repeat, gender Male, age 6 weeks; conditions: in vivo, po, 1000 mg/kg, […], tissue Kidney, route gavage, dose level High, time 28 day
MEASURED_METRIC: KIDNEY_R (g)

COMPOUND | MEASURED_METRIC | NUMERIC_READOUT
CC(S)C(=O)NCC(=O)O (centres undefined) | KIDNEY_R | 1.5
CC(=O)[C@@]1(O)CC[C@H]2[C@@H]3C=C(Cl)C4=CC(=O)CC[C@]4(C)[C@H]3CC[C@@]21C | KIDNEY_R | 1.3
CCCCNC(=O)NS(=O)(=O)c1ccc(C)cc1 [TOLBUTAMIDE] | KIDNEY_R | 1.3
O=C(O)c1ccccc1Nc1ccccc1 | KIDNEY_R | 1.6

* * *

species on record: Rattus norvegicus; assay: Open TG-GATES - Regimen: Daily Repeat; type: toxicity, organism-based, Sprague-Dawley; parameters: regimen Daily Repeat, gender Male, age 6 weeks; details: in vivo, po, 1000 mg/kg, […], tissue Blood, route gavage, dose level High, time 14 day
MEASURED_METRIC: WBC (x10_2/uL)

COMPOUND | NUMERIC_READOUT
CC(S)C(=O)NCC(=O)O (centres undefined) | 129.5
CC(=O)[C@@]1(O)CC[C@H]2[C@@H]3C=C(Cl)C4=CC(=O)CC[C@]4(C)[C@H]3CC[C@@]21C | 106.2
O=C(O)c1ccccc1Nc1ccccc1 | 149.3
CCCCNC(=O)NS(=O)(=O)c1ccc(C)cc1 [TOLBUTAMIDE] | 116.4

* * *

Here, each record is paired with measured RALB data.
species: Rattus norvegicus; assay: Open TG-GATES - Regimen: Daily Repeat; format: toxicity, organism-based, Sprague-Dawley; set-up: regimen Daily Repeat, gender Male, age 6 weeks; settings: in vivo, po, 0 mg/kg, 72 h, tissue Plasma, route gavage, dose level Control, time 3 day

COMPOUND | UNITS_LABEL | RALB
O=c1ccc2ccccc2o1 | g/dL | 3.8
CN(C/C=C/C#CC(C)(C)C)Cc1cccc2ccccc12 | g/dL | 3.5
Nc1ccc(Cc2ccc(N)cc2)cc1 | g/dL | 2.6
CCCCC1C(=O)N(c2ccccc2)N(c2ccccc2)C1=O | g/dL | 4
CCCCNC(=O)NS(=O)(=O)c1ccc(C)cc1 [TOLBUTAMIDE] | g/dL | 2.7
O=C(O)c1ccccc1Nc1ccccc1 | g/dL | 2.7
CC(S)C(=O)NCC(=O)O (stereo not drawn) | g/dL | 2.9
COc1ccc([C@@H]2Sc3ccccc3N(CCN(C)C)C(=O)[C@@H]2OC(C)=O)cc1 | g/dL | 2.7

* * *

species: Rattus norvegicus; assay: Open TG-GATES - Regimen: Daily Repeat; format: toxicity, organism-based, Sprague-Dawley; parameters: regimen Daily Repeat, gender Male, age 6 weeks; conditions: in vivo, po, 300 mg/kg, 72 h, tissue Plasma, route gavage, dose level Middle, time 3 day

MOLECULE | UNITS_LABEL | RALB
CC(S)C(=O)NCC(=O)O (centres undefined) | g/dL | 3
CC(=O)[C@@]1(O)CC[C@H]2[C@@H]3C=C(Cl)C4=CC(=O)CC[C@]4(C)[C@H]3CC[C@@]21C | g/dL | 3.2
CCCCNC(=O)NS(=O)(=O)c1ccc(C)cc1 [TOLBUTAMIDE] | g/dL | 2.6
O=C(O)c1ccccc1Nc1ccccc1 | g/dL | 2.7

* * *

Below, each of the molecules is paired with its reported CRE value.
species: Rattus norvegicus; test: Open TG-GATES - Regimen: Single; format: toxicity, organism-based, Sprague-Dawley; parameters: regimen Single, gender Male, age 6 weeks; conditions: in vivo, po, 0 mg/kg, 3 h, tissue Plasma, route gavage, dose level Control

MOLECULE | CRE (mg/dL)
CN(CCOc1ccc(CC2SC(=O)NC2=O)cc1)c1ccccn1.O=C(O)/C=C\C(=O)O (stereo not given) [ROSIGLITAZONE MALEATE] | 0.3
CN(C)CCCN1c2ccccc2Sc2ccc(Cl)cc21 [CHLORPROMAZINE] | 0.4
Nc1ccc(Cc2ccc(N)cc2)cc1 | 0.2
CCCCNC(=O)NS(=O)(=O)c1ccc(C)cc1 [TOLBUTAMIDE] | 0.2
CCN(CC)C(=S)SSC(=S)N(CC)CC | 0.2
CN(C/C=C/C#CC(C)(C)C)Cc1cccc2ccccc12 [TERBINAFINE] | 0.4
C=C[C@H]1C[N@@]2CC[C@H]1C[C@@H]2[C@@H](O)c1ccnc2ccc(OC)cc12 [QUINIDINE] | 0.2
COc1ccc([C@@H]2Sc3ccccc3N(CCN(C)C)C(=O)[C@@H]2OC(C)=O)cc1 [DILTIAZEM] | 0.2
CCO [ALCOHOL] | 0.5
COc1cc2ncnc(Nc3ccc(F)c(Cl)c3)c2cc1OCCCN1CCOCC1 [GEFITINIB] | 0.2

* * *

Here the recorded Lym is given for each entry.
species on record: Rattus norvegicus; assay: Open TG-GATES - Regimen: Daily Repeat; format: toxicity, organism-based, Sprague-Dawley; set-up: regimen Daily Repeat, gender Male, age 6 weeks; conditions: in vivo, po, 1000 mg/kg, 72 h, tissue Blood, route gavage, dose level High, time 3 day
MEASURED_METRIC: Lym (%)

COMPOUND | NUMERIC_READOUT
CC(=O)[C@@]1(O)CC[C@H]2[C@@H]3C=C(Cl)C4=CC(=O)CC[C@]4(C)[C@H]3CC[C@@]21C | 76.8
O=C(O)c1ccccc1Nc1ccccc1 | 50.3
CCCCNC(=O)NS(=O)(=O)c1ccc(C)cc1 [TOLBUTAMIDE] | 81
CC(S)C(=O)NCC(=O)O (centres undefined) | 73.8

* * *

species: Rattus norvegicus; assay: Open TG-GATES - Regimen: Daily Repeat; assay type: toxicity, organism-based, Sprague-Dawley; set-up: regimen Daily Repeat, gender Male, age 6 weeks; conditions: in vivo, po, 0 mg/kg, […], tissue Plasma, route gavage, dose level Control, time 7 day

MOLECULE | LDH / IU/L
CN(C/C=C/C#CC(C)(C)C)Cc1cccc2ccccc12 [TERBINAFINE] | 212.4
O=C(O)c1ccccc1Nc1ccccc1 [FENAMIC ACID] | 105
CCCCNC(=O)NS(=O)(=O)c1ccc(C)cc1 [TOLBUTAMIDE] | 64.8
CC(=O)[C@@]1(O)CC[C@H]2[C@@H]3C=C(Cl)C4=CC(=O)CC[C@]4(C)[C@H]3CC[C@@]21C [CHLORMADINONE] | 158.4
CCN(CC)C(=S)SSC(=S)N(CC)CC | 223
CCO [ALCOHOL] | 81.2

* * *

The entries below come with measured KIDNEY_TOTAL values attached.
species: Rattus norvegicus; assay: Open TG-GATES - Regimen: Daily Repeat; assay type: toxicity, organism-based, Sprague-Dawley; parameters: regimen Daily Repeat, gender Male, age 6 weeks; details: in vivo, po, 300 mg/kg, […], tissue Kidney, route gavage, dose level Middle, time 14 day

COMPOUND | KIDNEY_TOTAL, g
O=C(O)c1ccccc1Nc1ccccc1 [FENAMIC ACID] | 2.7
CCCCNC(=O)NS(=O)(=O)c1ccc(C)cc1 [TOLBUTAMIDE] | 2.5
CC(S)C(=O)NCC(=O)O (centres undefined) [TIOPRONIN] | 2.5
CC(=O)[C@@]1(O)CC[C@H]2[C@@H]3C=C(Cl)C4=CC(=O)CC[C@]4(C)[C@H]3CC[C@@]21C [CHLORMADINONE] | 2.2

* * *

# PL annotations
species: Rattus norvegicus; assay: Open TG-GATES - Regimen: Single; assay type: toxicity, organism-based, Sprague-Dawley; set-up: regimen Single, gender Male, age 6 weeks; conditions: in vivo, po, 0 mg/kg, 3 h, tissue Plasma, route gavage, dose level Control

COMPOUND | PL (mg/dL)
COc1ccc([C@@H]2Sc3ccccc3N(CCN(C)C)C(=O)[C@@H]2OC(C)=O)cc1 | 141
CC(=O)[C@@]1(O)CC[C@H]2[C@@H]3C=C(Cl)C4=CC(=O)CC[C@]4(C)[C@H]3CC[C@@]21C | 130.6
CCN(CC)C(=S)SSC(=S)N(CC)CC | 138
CN(C)CCCN1c2ccccc2Sc2ccc(Cl)cc21 | 131.8
COc1cc2ncnc(Nc3ccc(F)c(Cl)c3)c2cc1OCCCN1CCOCC1 | 148.6
O=C(O)c1ccccc1Nc1ccccc1 | 132
CCCCNC(=O)NS(=O)(=O)c1ccc(C)cc1 [TOLBUTAMIDE] | 145
CC(S)C(=O)NCC(=O)O (centres undefined) | 128.6
CN(CCOc1ccc(CC2SC(=O)NC2=O)cc1)c1ccccn1.O=C(O)/C=C\C(=O)O (centres undefined) [ROSIGLITAZONE MALEATE] | 138.2
